The values you see were collected from patent US6107316A.

Experimental Protocol: cytotoxicity towards L929 host cells (Cell Titer 96)
Measurement Conditions: mouse, % Inhibition of host cell growth (values in parenthesis), L929, 0.5 μg/ml, 24 hours
List of inhibition at 24 h values.
Response body: numeric value in %, unit text excluded.

Report inhibition at 24 h for O=C1C(O)=C([C@H]2CC[C@H](c3ccc(Cl)cc3)CC2)C(=O)c2ccccc21 [Atovaquone, reference compound]
14.3

Report inhibition at 24 h for CCC(C)(NC(=O)c1cc(Cl)c(C)c(Cl)c1)C(=O)CCl (stereo not drawn)
3.7

Report inhibition at 24 h for CCC(C)(NC(=O)c1cc(Cl)c(N)c(Cl)c1)C(=O)CCl (stereo not drawn)
1.5

Report inhibition at 24 h for CCC(C)(NC(=O)c1cc(F)cc(F)c1)C(=O)CCl (stereo not drawn)
8

Report inhibition at 24 h for CCC(C)(NC(=O)c1cc(Cl)c(F)c(Cl)c1)C(=O)CCl (stereo not drawn)
6.3

Report inhibition at 24 h for CCC(C)(NC(=O)c1cc(Br)c(N)c(Br)c1)C(=O)CCl (stereo not drawn)
8.9

----------
Experimental Protocol: cytotoxicity towards L929 host cells (Cell Titer 96)
Measurement Conditions: mouse, % Inhibition of host cell growth (values in parenthesis), L929, 25.0 μg/ml, 48 hours
List of inhibition at 48 h values.
Response body: numeric value in %, unit text excluded.

CCC(C)(NC(=O)c1cc(Cl)c(C)c(Cl)c1)C(=O)CCl (centres unmarked) [Compound 10]	4.5

# next compound below
Report inhibition at 48 h for CCC(C)(NC(=O)c1cc(F)c(F)c(F)c1)C(=O)CCl (centres unmarked) [Compound 11]
60.1

----------
System: Toxoplasma gondii
Experimental Protocol: growth inhibition of T. gondii in HFF host cells ([3H]-uracil incorporation)
Type: cell-based
Measurement Conditions: Toxoplasma gondii, 48 h, HFF host cells, 0.5 μg/ml, 48 hours; read-out: % Inhibition
Attribute Measured: inhibition at 0.5 µg/mL (%)
Response body: numeric value in %, unit text excluded.

CCC(C)(NC(=O)c1cc(F)cc(F)c1)C(=O)CCl (centres unmarked)	95.3
O=C1C(O)=C([C@H]2CC[C@H](c3ccc(Cl)cc3)CC2)C(=O)c2ccccc21 [Atovaquone, reference compound]	77.8
CCC(C)(NC(=O)c1cc(Cl)c(N)c(Cl)c1)C(=O)CCl (centres unmarked)	96.1
CCC(C)(NC(=O)c1cc(Br)c(N)c(Br)c1)C(=O)CCl (centres unmarked)	96.1

# next compound below
Report inhibition at 0.5 µg/mL for CCC(C)(NC(=O)c1cc(Cl)c(F)c(Cl)c1)C(=O)CCl (centres unmarked)
77.6

----------
Experimental Protocol: cytotoxicity towards HFF host cells (Cell Titer 96)
Measurement Conditions: human, % Inhibition of host cell growth (values in parenthesis), 5.0 μg/ml, 72 hours
List of inhibition at 72 h values.

Please review the following examples before continuing.
CCC(C)(NC(=O)c1cc(Br)c(N)c(Br)c1)C(=O)CCl (centres unmarked)	53.6%
CCC(C)(NC(=O)c1cc(F)cc(F)c1)C(=O)CCl (centres unmarked)	41.3%
CCC(C)(NC(=O)c1cc(F)c(F)c(F)c1)C(=O)CCl (centres unmarked)	0%

Report inhibition at 72 h for CCC(C)(NC(=O)c1cc(Cl)c(F)c(Cl)c1)C(=O)CCl (centres unmarked)
6.3%

Report inhibition at 72 h for CCC(C)(NC(=O)c1cc(Cl)c(C)c(Cl)c1)C(=O)CCl (centres unmarked)
3.5%

----------
Test system: Tetrahymena pyriformis
Experimental Protocol: in vitro growth inhibitory activity against the ciliate Tetrahymena pyriformis
Format: cell-based, Tetrahymena pyriformis (ATCC strain 30005)
Measurement Conditions: 24 hours, 25° C., read-out: EC50 Tetrahymena pyriformis
List of log10 EC50 values.
Parameter value (number): base-10 log of EC50 in µg/mL.

Please review the following examples before continuing.
CCC(C)(NC(=O)c1cc(Cl)c(F)c(Cl)c1)C(=O)CCl (centres unmarked)	-2.40
CCC(C)(NC(=O)c1cc(Cl)c2ncoc2c1)C(=O)CCl (centres unmarked)	-0.22
CCC(C)(NC(=O)c1cc(Cl)cc(Cl)c1)C(=O)CSC#N (centres unmarked)	-1.15
CCC(C)(NC(=O)c1cc(Cl)cc(Cl)c1)C(=O)C(Br)Br (centres unmarked)	-1.00
CCC(C)(NC(=O)c1cc(Cl)c(N)c(C=NOC)c1)C(=O)CCl (centres unmarked)	-1.70
CCC(C)(NC(=O)c1cc(Cl)c(N)c(Cl)c1)C(=O)CCl (centres unmarked)	-1.70

# next molecule below
GET log10 EC50 | system: Tetrahymena pyriformis | item: CCC(C)(NC(=O)c1cc(Cl)cc(Cl)c1)C(=O)CCl (centres unmarked)
-2.52

----------
Experimental Protocol: cytotoxicity towards HFF host cells (Cell Titer 96)
Measurement Conditions: human, % Inhibition of host cell growth (values in parenthesis), 0.5 μg/ml, 72 hours
List of inhibition at 72 h values.
Response body: numeric value in %, unit text excluded.

CCC(C)(NC(=O)c1cc(Cl)c(N)c(Cl)c1)C(=O)CCl (stereo not drawn)	1.4

# next compound below
Report inhibition at 72 h for CCC(C)(NC(=O)c1cc(Cl)c(C)c(Cl)c1)C(=O)CCl (stereo not drawn)
3

----------
Test system: Cryptosporidium parvum
Experimental Protocol: growth inhibitory activity against C. parvum in host MDBKF5D2 cells (immunofluorescence)
Type: cell-based
Measurement Conditions: Cryptosporidium parvum, 48 h, 10 μM
Attribute Measured: inhibition at 10 µM (%)
Response body: numeric value in %, unit text excluded.

Report inhibition at 10 µM for CCC(C)(NC(=O)c1cc(Cl)c(F)c(Cl)c1)C(=O)CCl (centres unmarked)
32.8

Report inhibition at 10 µM for CCC(C)(NC(=O)c1cc(F)cc(F)c1)C(=O)CCl (centres unmarked)
21.3

Report inhibition at 10 µM for CCC(C)(NC(=O)c1cc(Br)c(N)c(Br)c1)C(=O)CCl (centres unmarked)
35.4

Report inhibition at 10 µM for CCC(C)(NC(=O)c1cc(F)c(F)c(F)c1)C(=O)CCl (centres unmarked)
23.9

Report inhibition at 10 µM for CCC(C)(NC(=O)c1cc(Cl)c(N)c(Cl)c1)C(=O)CCl (centres unmarked)
34.2

----------
Experimental Protocol: cytotoxicity towards L929 host cells (Cell Titer 96)
Measurement Conditions: mouse, % Inhibition of host cell growth (values in parenthesis), L929, 0.05 μg/ml, 48 hours
Attribute Measured: inhibition at 48 h (%)
Response body: numeric value in %, unit text excluded.

Report inhibition at 48 h for O=C1C(O)=C([C@H]2CC[C@H](c3ccc(Cl)cc3)CC2)C(=O)c2ccccc21 [Atovaquone, reference compound]
0

----------
Experimental Protocol: cytotoxicity towards L929 host cells (Cell Titer 96)
Measurement Conditions: mouse, % Inhibition of host cell growth (values in parenthesis), L929, 5.0 μg/ml, 24 hours
inhibition at 24 h below 20% gives class 0; inhibition at 24 h at or above it gives class 1.

Example entries begin here.
CCC(C)(NC(=O)c1cc(Cl)c(C)c(Cl)c1)C(=O)CCl (stereo not shown)	class 0
CCC(C)(NC(=O)c1cc(Br)c(N)c(Br)c1)C(=O)CCl (stereo not shown)	class 1
CCC(C)(NC(=O)c1cc(F)cc(F)c1)C(=O)CCl (stereo not shown)	class 0

Does CCC(C)(NC(=O)c1cc(F)c(F)c(F)c1)C(=O)CCl (stereo not shown) have a reported inhibition at 24 h of at least 20%?
class 0

----------
Experimental Protocol: cytotoxicity towards L929 host cells (Cell Titer 96)
Measurement Conditions: mouse, % Inhibition of host cell growth (values in parenthesis), L929, 0.05 μg/ml, 24 hours
Experimental: Cytotoxicity of the test compounds towards host cells was determined using the Cell Titer 96™ it (Promega Corporation, Madison, Wis.) as follows. Cells were seeded at a concentration of 5×10^3 cells per well containing 100 μl of medium in 96-well flat-bottom microtiter plates and incubated at 37° C. in a 5% carbon dioxide environment for 4 hours. […] The plates were then read spectrophotometrically in a plate reader at a wavelength of 570 nm. […]
Attribute Measured: inhibition at 24 h (%)
Response body: numeric value in %, unit text excluded.

Report inhibition at 24 h for O=C1C(O)=C([C@H]2CC[C@H](c3ccc(Cl)cc3)CC2)C(=O)c2ccccc21 [Atovaquone, reference compound]
0

----------
Experimental Protocol: cytotoxicity towards HFF host cells (Cell Titer 96)
Measurement Conditions: human, % Inhibition of host cell growth (values in parenthesis), 5.0 μg/ml, 48 hours
List of inhibition at 48 h values.
Response body: numeric value in %, unit text excluded.

Please review the following examples before continuing.
O=C1C(O)=C([C@H]2CC[C@H](c3ccc(Cl)cc3)CC2)C(=O)c2ccccc21 [Atovaquone, reference compound]	31.1
CCC(C)(NC(=O)c1cc(Br)c(N)c(Br)c1)C(=O)CCl (centres unmarked)	31.8
CCC(C)(NC(=O)c1cc(Cl)c(C)c(Cl)c1)C(=O)CCl (centres unmarked)	7.6
CCC(C)(NC(=O)c1cc(Cl)c(N)c(Cl)c1)C(=O)CCl (centres unmarked)	13.5

# next compound below
Report inhibition at 48 h for CCC(C)(NC(=O)c1cc(F)cc(F)c1)C(=O)CCl (centres unmarked)
29.1
